Tested on: HOS
assayOverview: Cytotoxicity against human HOS cells assessed as reduction in number of viable cells after 72 hrs by fluorescence assay
Format: functional, cell-based
pIC50: −log10 of the molar value.
Lab note: anything with pIC50 at or over 5 counts as yes (1); the rest go in no (0).

[[record]]
molecule = "COc1ccc(CNc2nc(N3CCNCC3)nc3c2ncn3C(C)C)cc1"
assaysystem = "HOS"
cat = "yes (1)"

[[record]]
molecule = "CC[C@H](CO)Nc1nc(NCc2cc(F)ccc2O)c2ncn(C(C)C)c2n1"
assaysystem = "HOS"
cat = "yes (1)"

[[record]]
molecule = "CC[C@H](CO)Nc1nc(NCc2cccc(OC)c2OC)c2ncn(C(C)C)c2n1"
assaysystem = "HOS"
cat = "no (0)"

[[record]]
molecule = "CC(C)n1cnc2c(NCc3ccccc3O)nc(NCCC(C)(C)O)nc21"
assaysystem = "HOS"
cat = "no (0)"

[[record]]
molecule = "CC[C@@H](CO)Nc1nc(NCc2cccc(OC)c2O)c2ncn(C(C)C)c2n1"
assaysystem = "HOS"
cat = "yes (1)"

[[record]]
molecule = "CC(C)n1cnc2c(NCc3ccc(O)cc3)nc(N3CCNCC3)nc21"
assaysystem = "HOS"
cat = "yes (1)"

[[record]]
molecule = "CC(C)n1cnc2c(NCc3cc(Cl)ccc3O)nc(NCC(C)(C)O)nc21"
assaysystem = "HOS"
cat = "yes (1)"

[[record]]
molecule = "CC(C)n1cnc2c(NCc3ccccc3N)nc(NCCC(C)(C)O)nc21"
assaysystem = "HOS"
cat = "no (0)"

[[record]]
molecule = "CC(C)n1cnc2c(NCc3ccccc3N)nc(NCC(C)(C)O)nc21"
assaysystem = "HOS"
cat = "no (0)"

[[record]]
molecule = "CC(C)n1cnc2c(NCc3cc(Cl)ccc3O)nc(NC3CCC(O)CC3)nc21 (stereo not given)"
assaysystem = "HOS"
cat = "yes (1)"


---

System: K562
assayOverview: Cytotoxicity against human K562 cells assessed as reduction in number of viable cells after 72 hrs by fluorescence assay
Format: functional, cell-based
conditionDescription: K562, 72 h
pIC50: −log10 of the molar value.
Given measured pIC50, output True if it is greater than or equal to 5 and False if not.

[[record]]
compound = "CC[C@H](CO)Nc1nc(NCc2cccc(OC)c2OC)c2ncn(C(C)C)c2n1"
cat = "False"

[[record]]
compound = "CC[C@H](CO)Nc1nc(NCc2cc(Cl)ccc2O)c2ncn(C(C)C)c2n1"
cat = "True"

[[record]]
compound = "CC(C)n1cnc2c(NCc3cc(Cl)ccc3O)nc(NC3CCC(N)CC3)nc21 (stereo not drawn)"
cat = "True"

[[record]]
compound = "CC[C@H](CO)Nc1nc(NCc2cc(F)ccc2O)c2ncn(C(C)C)c2n1"
cat = "True"

[[record]]
compound = "CC(C)n1cnc2c(NCc3cc(Cl)ccc3O)nc(N[C@@H](C)C(C)(C)O)nc21"
cat = "True"

[[record]]
compound = "CC[C@@H](CO)Nc1nc(NCc2cccc(OC)c2O)c2ncn(C(C)C)c2n1"
cat = "False"

[[record]]
compound = "COc1cccc(CNc2nc(N3CCNCC3)nc3c2ncn3C(C)C)c1O"
cat = "False"

[[record]]
compound = "CC(C)n1cnc2c(NCc3cc(Cl)ccc3O)nc(NC3CCC(O)CC3)nc21 (stereo not drawn)"
cat = "True"

[[record]]
compound = "CC(C)n1cnc2c(NCc3ccccc3N)nc(NCC(C)(C)O)nc21"
cat = "False"

[[record]]
compound = "CC[C@H](CO)Nc1nc(NCc2ccccc2O)c2ncn(C(C)C)c2n1"
cat = "False"

[[record]]
compound = "CC[C@@H](Nc1nc(NCc2cc(F)ccc2O)c2ncn(C(C)C)c2n1)C(C)O (mixture of isomers)"
cat = "True"

[[record]]
compound = "COc1ccc(CNc2nc(N3CCNCC3)nc3c2ncn3C(C)C)cc1"
cat = "True"

[[record]]
compound = "CC(C)n1cnc2c(NCc3cc(Cl)ccc3O)nc(NCC(C)(C)O)nc21"
cat = "True"


---

pIC50 for assorted molecules
Test system: HOS
assayOverview: Cytotoxicity against human HOS cells assessed as reduction in number of viable cells after 72 hrs by fluorescence assay
Format: functional, cell-based
pIC50: −log10 of the molar value.
readout: pIC50

[[record]]
querysmiles = "CC(C)CNc1nc(NCc2ccccc2O)c2ncn(C(C)C)c2n1"
measurement = 4.62

[[record]]
querysmiles = "CC[C@H](CO)Nc1nc(NCc2ccc(N)cc2)c2ncn(C(C)C)c2n1"
measurement = 4.53

[[record]]
querysmiles = "CC(C)n1cnc2c(NCc3cc(Cl)ccc3O)nc(N[C@@H](C)C(C)(C)O)nc21"
measurement = 5.74

[[record]]
querysmiles = "CC(C)[C@H](Nc1nc(NCc2ccccc2N)c2ncn(C(C)C)c2n1)C(C)(C)O"
measurement = 4.37


---

assaySystem: CDK9/cyclin T1 (Homo sapiens, UniProt P50750)
Sequence (O60563 whole entry): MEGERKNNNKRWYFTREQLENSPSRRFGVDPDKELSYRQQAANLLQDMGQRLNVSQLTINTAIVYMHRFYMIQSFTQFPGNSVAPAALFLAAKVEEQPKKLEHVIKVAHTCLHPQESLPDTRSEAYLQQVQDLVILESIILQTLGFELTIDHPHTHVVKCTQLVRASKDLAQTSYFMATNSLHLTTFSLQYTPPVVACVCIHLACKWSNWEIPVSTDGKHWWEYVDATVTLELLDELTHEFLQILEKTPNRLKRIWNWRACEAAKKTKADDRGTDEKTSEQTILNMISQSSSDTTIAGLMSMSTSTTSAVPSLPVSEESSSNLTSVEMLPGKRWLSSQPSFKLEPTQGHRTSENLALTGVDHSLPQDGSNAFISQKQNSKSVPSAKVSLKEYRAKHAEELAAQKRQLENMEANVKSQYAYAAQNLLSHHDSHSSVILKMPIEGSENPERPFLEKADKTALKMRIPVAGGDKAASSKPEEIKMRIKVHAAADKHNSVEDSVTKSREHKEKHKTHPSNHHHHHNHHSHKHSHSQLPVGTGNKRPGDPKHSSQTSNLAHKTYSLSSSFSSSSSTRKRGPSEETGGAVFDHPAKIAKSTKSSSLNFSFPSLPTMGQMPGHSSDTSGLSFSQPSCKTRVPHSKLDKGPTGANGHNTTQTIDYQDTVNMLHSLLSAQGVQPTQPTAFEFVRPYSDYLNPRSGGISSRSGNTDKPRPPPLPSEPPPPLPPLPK
Sequence (P50750 whole entry): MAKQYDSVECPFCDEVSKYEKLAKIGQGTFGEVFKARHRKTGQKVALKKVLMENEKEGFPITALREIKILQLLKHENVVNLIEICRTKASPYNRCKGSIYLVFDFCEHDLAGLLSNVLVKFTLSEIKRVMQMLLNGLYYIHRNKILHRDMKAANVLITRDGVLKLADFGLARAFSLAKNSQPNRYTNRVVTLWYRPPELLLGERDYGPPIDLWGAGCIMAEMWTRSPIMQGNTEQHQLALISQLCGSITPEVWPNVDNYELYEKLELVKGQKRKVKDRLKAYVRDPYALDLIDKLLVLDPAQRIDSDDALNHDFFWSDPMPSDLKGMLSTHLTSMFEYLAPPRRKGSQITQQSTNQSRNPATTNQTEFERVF
assayOverview: Inhibition of CDK9/CyclinT1 (unknown origin) using (YSPTSPS)2KK as substrate
pIC50: −log10 of the molar value.
readout: pIC50

[[record]]
molecule = "CC(C)n1cnc2c(NCc3cc(Cl)ccc3O)nc(NC3CCC(N)CC3)nc21 (stereo not given)"
assaysystem = "CDK9/cyclin T1 (Homo sapiens, UniProt P50750)"
measurement = 7.41

[[record]]
molecule = "CC(C)[C@H](Nc1nc(NCc2ccccc2N)c2ncn(C(C)C)c2n1)C(C)(C)O"
assaysystem = "CDK9/cyclin T1 (Homo sapiens, UniProt P50750)"
measurement = 6.07

[[record]]
molecule = "CC(C)CNc1nc(NCc2ccccc2O)c2ncn(C(C)C)c2n1"
assaysystem = "CDK9/cyclin T1 (Homo sapiens, UniProt P50750)"
measurement = 5.50

[[record]]
molecule = "CC[C@H](CO)Nc1nc(NCc2cc(Cl)ccc2O)c2ncn(C(C)C)c2n1"
assaysystem = "CDK9/cyclin T1 (Homo sapiens, UniProt P50750)"
measurement = 6.55

[[record]]
molecule = "CC[C@@H](Nc1nc(NCc2cc(F)ccc2O)c2ncn(C(C)C)c2n1)C(C)O (mixture of isomers)"
assaysystem = "CDK9/cyclin T1 (Homo sapiens, UniProt P50750)"
measurement = 7.00


---

Test system: HOS
assayOverview: Cytotoxicity against human HOS cells assessed as reduction in number of viable cells after 72 hrs by fluorescence assay
Assay type: functional, cell-based
readout: log10(IC50) (log10 of the value in µM)

[[record]]
molecule = "CC(C)n1cnc2c(NCc3cc(Cl)ccc3O)nc(NC3CCC(N)CC3)nc21 (centres undefined)"
assaysystem = "HOS"
measurement = 0.34

[[record]]
molecule = "CC[C@H](CO)Nc1nc(NCc2ccccc2O)c2ncn(C(C)C)c2n1"
assaysystem = "HOS"
measurement = 1.03

[[record]]
molecule = "COc1ccc(CNc2nc(N3CCN(C)CC3)nc3c2ncn3C(C)C)cc1"
assaysystem = "HOS"
measurement = 1.05

[[record]]
molecule = "COc1cccc(CNc2nc(N3CCNCC3)nc3c2ncn3C(C)C)c1O"
assaysystem = "HOS"
measurement = 1.49

[[record]]
molecule = "CC[C@H](CO)Nc1nc(NCc2cc(Cl)ccc2O)c2ncn(C(C)C)c2n1"
assaysystem = "HOS"
measurement = 0.70

[[record]]
molecule = "CC[C@H](CO)Nc1nc(NCc2cccc(OC)c2O)c2ncn(C(C)C)c2n1"
assaysystem = "HOS"
measurement = 1.17

[[record]]
molecule = "CC[C@@H](Nc1nc(NCc2cc(F)ccc2O)c2ncn(C(C)C)c2n1)C(C)O (mixture of isomers)"
assaysystem = "HOS"
measurement = 0.38

[[record]]
molecule = "CC[C@@H](Nc1nc(NCc2cc(Cl)ccc2O)c2ncn(C(C)C)c2n1)C(C)O (mixture of isomers)"
assaysystem = "HOS"
measurement = 0.43

[[record]]
molecule = "CC[C@H](CO)Nc1nc(NCc2ccccc2)c2ncn(C(C)C)c2n1"
assaysystem = "HOS"
measurement = 1.39


---

IC50 listing for selected compounds.
Test system: HCT-116
assayOverview: Cytotoxicity against human HCT116 cells assessed as reduction in number of viable cells after 72 hrs by fluorescence assay
Assay type: functional, cell-based
conditionDescription: HCT-116, 72 h
readout: IC50 (µM)

[[record]]
compound = "COc1ccc(CNc2nc(N3CCNCC3)nc3c2ncn3C(C)C)cc1"
unitannotation = "µM"
measurement = 11.5

[[record]]
compound = "COc1ccc(CNc2nc(N3CCN(C)CC3)nc3c2ncn3C(C)C)cc1"
unitannotation = "µM"
measurement = 13.4

[[record]]
compound = "CC[C@@H](CO)Nc1nc(NCc2cccc(OC)c2O)c2ncn(C(C)C)c2n1"
unitannotation = "µM"
measurement = 8.7

[[record]]
compound = "CC(C)n1cnc2c(NCc3ccc(O)cc3)nc(N3CCNCC3)nc21"
unitannotation = "µM"
measurement = 9.3

[[record]]
compound = "CC[C@H](CO)Nc1nc(NCc2ccccc2)c2ncn(C(C)C)c2n1"
unitannotation = "µM"
measurement = 14.4

[[record]]
compound = "CC[C@@H](Nc1nc(NCc2cc(F)ccc2O)c2ncn(C(C)C)c2n1)C(C)O (mixture of isomers)"
unitannotation = "µM"
measurement = 1.8

[[record]]
compound = "CC(C)n1cnc2c(NCc3cc(Cl)ccc3O)nc(NCC(C)(C)O)nc21"
unitannotation = "µM"
measurement = 4

[[record]]
compound = "CC(C)n1cnc2c(NCc3cc(Cl)ccc3O)nc(NC3CCC(O)CC3)nc21 (stereo not drawn)"
unitannotation = "µM"
measurement = 13.2

[[record]]
compound = "CC[C@H](CO)Nc1nc(NCc2cccc(OC)c2OC)c2ncn(C(C)C)c2n1"
unitannotation = "µM"
measurement = 29.5

[[record]]
compound = "CC(C)n1cnc2c(NCc3cc(Cl)ccc3O)nc(NC3CCC(N)CC3)nc21 (stereo not drawn)"
unitannotation = "µM"
measurement = 2.4

[[record]]
compound = "CC[C@H](CO)Nc1nc(NCc2ccccc2O)c2ncn(C(C)C)c2n1"
unitannotation = "µM"
measurement = 4.1

[[record]]
compound = "CC[C@H](CO)Nc1nc(NCc2cccc(OC)c2O)c2ncn(C(C)C)c2n1"
unitannotation = "µM"
measurement = 12.3

[[record]]
compound = "CC[C@H](CO)Nc1nc(NCc2cc(Cl)ccc2O)c2ncn(C(C)C)c2n1"
unitannotation = "µM"
measurement = 5.4

[[record]]
compound = "CC(C)CNc1nc(NCc2ccccc2O)c2ncn(C(C)C)c2n1"
unitannotation = "µM"
measurement = 22.2

[[record]]
compound = "CC[C@H](CO)Nc1nc(NCc2cc(F)ccc2O)c2ncn(C(C)C)c2n1"
unitannotation = "µM"
measurement = 4.8

[[record]]
compound = "COc1cccc(CNc2nc(N3CCNCC3)nc3c2ncn3C(C)C)c1O"
unitannotation = "µM"
measurement = 22.5

[[record]]
compound = "CC(C)n1cnc2c(NCc3ccccc3N)nc(NCCC(C)(C)O)nc21"
unitannotation = "µM"
measurement = 100

[[record]]
compound = "CC(C)n1cnc2c(NCc3cc(Cl)ccc3O)nc(N[C@@H](C)C(C)(C)O)nc21"
unitannotation = "µM"
measurement = 1.8

[[record]]
compound = "CC(C)n1cnc2c(NCc3ccccc3O)nc(NCCC(C)(C)O)nc21"
unitannotation = "µM"
measurement = 64.1

[[record]]
compound = "CC[C@H](CO)Nc1nc(NCc2ccc(N)cc2)c2ncn(C(C)C)c2n1"
unitannotation = "µM"
measurement = 23.8

[[record]]
compound = "CC[C@@H](Nc1nc(NCc2cc(Cl)ccc2O)c2ncn(C(C)C)c2n1)C(C)O (mixture of isomers)"
unitannotation = "µM"
measurement = 2

[[record]]
compound = "CC(C)[C@H](Nc1nc(NCc2ccccc2N)c2ncn(C(C)C)c2n1)C(C)(C)O"
unitannotation = "µM"
measurement = 11.8

[[record]]
compound = "CC(C)n1cnc2c(NCc3ccccc3N)nc(NCC(C)(C)O)nc21"
unitannotation = "µM"
measurement = 12.9

